// map melting point onto a label; ranges low band (below 70 °C), middle band (70 °C to below 90 °C), high band (90 °C or more)

[
  {
    "Molecule": "C=C(C)C(=O)CC",
    "Label value": "low band"
  },
  {
    "Molecule": "CC(=O)c1sc2ccccc2c1C",
    "Label value": "middle band"
  },
  {
    "Molecule": "C=COCCCCCCCCCCCCCCCC",
    "Label value": "low band"
  },
  {
    "Molecule": "O=c1[nH]cnc2c1ncn2C1CC(O)C(CO)O1 (stereo not drawn)",
    "Label value": "high band"
  },
  {
    "Molecule": "CC(C)C1=C(O)C(=O)C2=C(C1=O)C(O)CC1C(C)(C)CCCC21C (stereo not drawn)",
    "Label value": "high band"
  },
  {
    "Molecule": "Cc1cc(C(C)(C)C)cc(C(C)(C)C)c1",
    "Label value": "low band"
  },
  {
    "Molecule": "CCCCCCCCCCCCCCCCC#N",
    "Label value": "low band"
  },
  {
    "Molecule": "Nc1ccncc1C(F)(F)F",
    "Label value": "high band"
  },
  {
    "Molecule": "CCC(C)(O)C(=O)O (stereo not drawn)",
    "Label value": "middle band"
  },
  {
    "Molecule": "Nc1ccccc1Cl",
    "Label value": "low band"
  },
  {
    "Molecule": "CON(C)C(=O)Nc1ccc(Br)cc1",
    "Label value": "high band"
  },
  {
    "Molecule": "CCOc1nc(F)cc2nc(S(=O)(=O)Nc3c(Cl)cccc3C(=O)OC)nn12",
    "Label value": "high band"
  }
]
